Data origin, for the record: patent US5869448A

Target: VLA-4/CS-1 (Homo sapiens, UniProt P05556+P13612)
Construct: inflammatory cells that contain the VLA-4 receptor [Jurkat cells; host or cells: Jurkat (human T lymphoblastic line)
Sequence (P13612 34-1032): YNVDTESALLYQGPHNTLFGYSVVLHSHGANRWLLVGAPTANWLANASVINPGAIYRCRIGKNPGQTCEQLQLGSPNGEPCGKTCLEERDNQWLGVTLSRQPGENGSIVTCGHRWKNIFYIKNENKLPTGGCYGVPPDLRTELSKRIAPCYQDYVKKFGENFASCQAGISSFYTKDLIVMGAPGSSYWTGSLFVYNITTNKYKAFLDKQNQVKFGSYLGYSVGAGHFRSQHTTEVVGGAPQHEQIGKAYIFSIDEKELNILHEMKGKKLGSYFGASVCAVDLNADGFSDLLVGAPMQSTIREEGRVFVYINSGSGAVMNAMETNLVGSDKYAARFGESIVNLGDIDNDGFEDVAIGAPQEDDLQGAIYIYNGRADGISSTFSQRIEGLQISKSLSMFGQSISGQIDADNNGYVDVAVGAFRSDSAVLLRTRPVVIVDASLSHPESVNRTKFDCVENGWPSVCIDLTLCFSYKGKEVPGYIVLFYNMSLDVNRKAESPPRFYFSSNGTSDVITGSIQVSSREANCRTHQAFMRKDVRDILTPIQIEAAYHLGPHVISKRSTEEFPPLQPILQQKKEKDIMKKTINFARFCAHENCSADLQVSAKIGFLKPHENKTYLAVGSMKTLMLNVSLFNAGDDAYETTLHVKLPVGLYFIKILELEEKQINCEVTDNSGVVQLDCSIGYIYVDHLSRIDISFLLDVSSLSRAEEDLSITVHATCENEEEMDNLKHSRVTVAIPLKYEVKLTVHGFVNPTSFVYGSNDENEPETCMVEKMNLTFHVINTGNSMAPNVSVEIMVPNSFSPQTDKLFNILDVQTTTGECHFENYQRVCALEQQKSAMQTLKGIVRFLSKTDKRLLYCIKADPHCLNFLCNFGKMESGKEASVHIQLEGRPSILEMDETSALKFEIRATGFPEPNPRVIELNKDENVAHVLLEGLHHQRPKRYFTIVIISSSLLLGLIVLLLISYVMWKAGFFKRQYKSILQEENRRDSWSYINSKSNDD
Sequence (P05556 21-798): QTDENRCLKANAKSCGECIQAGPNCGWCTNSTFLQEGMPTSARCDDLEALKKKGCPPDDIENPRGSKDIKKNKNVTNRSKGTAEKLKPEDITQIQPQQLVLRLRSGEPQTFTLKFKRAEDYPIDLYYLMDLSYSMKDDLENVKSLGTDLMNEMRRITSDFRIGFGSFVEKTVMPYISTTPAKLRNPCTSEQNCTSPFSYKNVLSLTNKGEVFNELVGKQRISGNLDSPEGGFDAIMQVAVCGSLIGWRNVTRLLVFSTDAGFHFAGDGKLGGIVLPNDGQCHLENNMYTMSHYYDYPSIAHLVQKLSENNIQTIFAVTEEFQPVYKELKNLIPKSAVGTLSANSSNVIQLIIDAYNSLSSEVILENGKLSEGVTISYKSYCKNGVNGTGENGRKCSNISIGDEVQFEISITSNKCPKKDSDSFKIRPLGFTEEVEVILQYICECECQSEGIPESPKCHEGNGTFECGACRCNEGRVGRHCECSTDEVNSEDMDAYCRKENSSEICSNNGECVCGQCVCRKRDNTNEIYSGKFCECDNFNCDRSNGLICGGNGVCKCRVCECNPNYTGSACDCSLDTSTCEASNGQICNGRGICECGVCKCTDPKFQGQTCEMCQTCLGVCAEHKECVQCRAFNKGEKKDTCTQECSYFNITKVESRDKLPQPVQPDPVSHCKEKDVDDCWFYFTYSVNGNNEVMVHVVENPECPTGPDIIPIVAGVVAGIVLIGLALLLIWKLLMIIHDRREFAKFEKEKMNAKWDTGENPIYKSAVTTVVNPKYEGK
Test: In vitro inhibition of binding of 51Cr-labeled Jurkat cells to solid phase-bound CS-1 peptide
Type: cell-based
Conditions: Table 1; normalized IC50, standard peptide of SEQ ID NO:6 = 1
Experimental: Binding inhibition is measured here as a concentration of peptide that inhibits one-half the binding between a standard number of Jurkat cells and a standard amount of CS-1 peptide bound to the surface of a microtiter plate well. Those concentrations are conveniently expressed as IC50 values, smaller numbers indicating a lower concentration required to inhibit 50 percent binding and therefore greater potency. Further specifics of this assay are provided hereinafter. […]
Positions of bridges follow the written chain, without caps; N, C: chain ends. Residues, ends and D or L forms follow the SMILES beside them.
measurement type: Relative Potency
// no unit, no text: just the number

CC(C)C[C@@H]1NC(=O)[C@H](Cc2ccccc2)NC(=O)[C@@H](N)CSSC[C@@H](C(N)=O)NC(=O)[C@H](C(C)C)NC(=O)[C@H]([C@@H](C)O)NC(=O)[C@H](CO)NC(=O)[C@@H]2CCCN2C(=O)[C@H](Cc2ccccc2)NC(=O)[C@H](CC(=O)O)NC1=O [compound 21] (H-CFLDFPSTVC-NH2; disulfide 1-10) : 19

--- query ---
input: Given the compound CC(C)C[C@@H]1NC(=O)[C@@H](N)CSSC[C@@H](C(N)=O)NC(=O)[C@H](Cc2ccccc2)NC(=O)[C@H](CC(=O)O)NC1=O [compound 28] (H-CLDFC-NH2; disulfide 1-5) , what is its reported Relative Potency?
output: 1
